molecular target: AR (Homo sapiens, UniProt P10275); construct: endogenous in cells; host or cells: VCaP cells; assay: VCAP AR Degradation Assay; format: cell-based; conditions: VCaP cells, 24 h; lowest AR level normalized to DMSO control; class symbols
Sequence (P10275 whole entry): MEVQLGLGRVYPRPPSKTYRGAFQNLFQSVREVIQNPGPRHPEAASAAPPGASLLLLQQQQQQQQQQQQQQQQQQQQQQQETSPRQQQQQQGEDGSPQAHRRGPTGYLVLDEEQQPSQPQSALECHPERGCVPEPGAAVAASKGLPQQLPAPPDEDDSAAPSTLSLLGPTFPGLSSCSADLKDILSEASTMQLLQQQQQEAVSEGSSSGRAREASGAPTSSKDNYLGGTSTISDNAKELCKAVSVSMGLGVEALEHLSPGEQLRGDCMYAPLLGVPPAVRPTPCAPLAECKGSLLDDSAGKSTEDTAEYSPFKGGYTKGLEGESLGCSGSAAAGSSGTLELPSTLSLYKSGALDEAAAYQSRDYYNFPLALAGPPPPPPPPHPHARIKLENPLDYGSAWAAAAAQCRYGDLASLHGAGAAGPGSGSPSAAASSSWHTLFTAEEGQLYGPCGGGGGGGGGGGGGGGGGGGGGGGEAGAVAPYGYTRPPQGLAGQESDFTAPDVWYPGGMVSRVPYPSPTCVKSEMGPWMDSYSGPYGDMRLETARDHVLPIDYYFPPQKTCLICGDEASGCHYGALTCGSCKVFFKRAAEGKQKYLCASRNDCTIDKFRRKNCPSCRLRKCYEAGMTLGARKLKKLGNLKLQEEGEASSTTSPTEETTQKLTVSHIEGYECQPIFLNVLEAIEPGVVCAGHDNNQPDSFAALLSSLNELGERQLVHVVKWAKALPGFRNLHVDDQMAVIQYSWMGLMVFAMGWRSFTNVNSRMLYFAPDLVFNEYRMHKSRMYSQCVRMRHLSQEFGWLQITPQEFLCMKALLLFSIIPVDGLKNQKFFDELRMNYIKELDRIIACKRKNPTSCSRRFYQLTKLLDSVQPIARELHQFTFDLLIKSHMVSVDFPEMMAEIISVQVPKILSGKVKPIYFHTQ
Structures can show the parent of a compound that is named as a salt.
REPORTED_METRIC: Ymin

MOLECULE	REPORTED_METRIC	RESULT
C[C@@H]1CN(CCCO[C@H]2CC[C@H](N3C(=S)N(c4ccc(C#N)c(C(F)(F)F)c4)C(=O)C3(C)C)CC2)C[C@H](C)N1CC(=O)Nc1ccc(C2CCC(=O)NC2=O)cc1 (some centres unmarked) [Cmpd 12, hydrochloride]	Ymin	** (20%<Y≤30%)
C[C@@H]1CN(CCC[C@H]2CC[C@H](N3C(=S)N(c4cnc(C#N)c(C(F)(F)F)c4)C(=O)C3(C)C)CC2)C[C@H](C)N1CC(=O)Nc1ccc(C2CCC(=O)NC2=O)cc1 (some centres unmarked) [Cmpd 15, hydrochloride]	Ymin	** (20%<Y≤30%)
C[C@@H]1CN(CCC[C@H]2CC[C@H](N3C(=S)N(c4ccc(C#N)c(C(F)(F)F)c4)C(=O)C3(C)C)CC2)C[C@H](C)N1CC(=O)Nc1ccc(C2CCC(=O)NC2=O)cc1 (some centres unmarked) [Cmpd 3, hydrochloride]	Ymin	** (20%<Y≤30%)

###

DC50 values, listed per item
target: AR (Homo sapiens, UniProt P10275); construct: endogenous in cells; host or cells: VCaP cells; experiment: VCAP AR Degradation Assay; type: cell-based; conditions: VCaP cells, 24 h, AR ELISA; concentration when AR level = 50% of DMSO control
Counter-ions that a name gives are not always drawn.

DC50 in this record for C[C@@H]1C[C@H](OCCC[C@H]2CC[C@H](N3C(=S)N(c4ccc(C#N)c(C(F)(F)F)c4)C(=O)C3(C)C)CC2)C[C@H](C)N1CC(=O)Nc1ccc(C2CCC(=O)NC2=O)cc1 (stereo partly shown) [Cmpd 37] : 15 to 100 nM

The recorded DC50 for C[C@@H]1C[C@H](OCC[C@H]2CC[C@H](N3C(=S)N(c4ccc(C#N)c(C(F)(F)F)c4)C(=O)C3(C)C)CC2)C[C@H](C)N1CC(=O)Nc1ccc(C2CCC(=O)NC2=O)cc1 (stereo partly shown) [Cmpd 40] is 5 to 15 nM

DC50 for C[C@@H]1CN(CCO[C@H]2CC[C@H](N3C(=S)N(c4cnc(C#N)c(Cl)c4)C(=O)C3(C)C)CC2)C[C@H](C)N1CC(=O)Nc1ccc(C2CCC(=O)NC2=O)cc1 (stereo partly shown) [Cmpd 11, hydrochloride] is ≤ 5 nM

Sure, the documented DC50 for C[C@@H]1CN(CCCC[C@H]2CC[C@H](N3C(=S)N(c4ccc(C#N)c(C(F)(F)F)c4)C(=O)C3(C)C)CC2)C[C@H](C)N1CC(=O)Nc1ccc(C2CCC(=O)NC2=O)cc1 (stereo partly shown) [Cmpd 30] is ≤ 5 nM

So for CC1(C)C(=O)N(c2ccc(C#N)c(C(F)(F)F)c2)C(=S)N1[C@H]1CC[C@H](OCCCN2CCN(CC(=O)Nc3cccc(C4CCC(=O)NC4=O)c3)[C@@H](C(F)(F)F)C2)CC1 (stereo partly shown) [Cmpd 31] , the logged DC50 turned out to be ≤ 5 nM

Recorded result, CC1(C)C(=O)N(c2cnc(C#N)c(C(F)(F)F)c2)C(=S)N1[C@H]1CC[C@H](OCCCN2CCN(CC(=O)Nc3ccc(C4CCC(=O)NC4=O)cc3)[C@@H](C(F)(F)F)C2)CC1 (stereo partly shown) [Cmpd 34] , DC50: ≤ 5 nM

So, C[C@@H]1CN(CCC[C@H]2CC[C@H](N3C(=S)N(c4cnc(C#N)c(Cl)c4)C(=O)C3(C)C)CC2)C[C@H](C)N1CC(=O)Nc1ccc(C2CCC(=O)NC2=O)cc1 (stereo partly shown) [Cmpd 16, hydrochloride] ? Its DC50 was 5 to 15 nM

###

target: AR (Homo sapiens, UniProt P10275); construct: endogenous in cells; host or cells: VCaP cells; experiment: VCAP AR Degradation Assay; assay type: cell-based; conditions: VCaP cells, 24 h, AR ELISA; concentration when AR level = 50% of DMSO control
Counter-ions that a name gives are not always drawn.
REPORTED_METRIC: DC50

Study these solved cases before continuing.
COMPOUND	DC50
CC1(C)C(=O)N(c2ccc(C#N)c(C(F)(F)F)c2)C(=S)N1[C@H]1CC[C@H](OCCCN2CCN(CC(=O)Nc3ccc(C4CCC(=O)NC4=O)cc3)[C@@H](C(F)(F)F)C2)CC1 (stereo partly drawn)	≤ 5 nM
C[C@@H]1CN(CCCC[C@H]2CC[C@H](N3C(=S)N(c4ccc(C#N)c(C(F)(F)F)c4)C(=O)C3(C)C)CC2)C[C@H](C)N1CC(=O)Nc1cccc(N2CCC(=O)NC2=O)c1	5 to 15 nM
CC[C@@]1(c2ccc(NC(=O)CN3[C@H](C)CN(CCO[C@H]4CC[C@H](N5C(=S)N(c6ccc(C#N)c(C(F)(F)F)c6)C(=O)C5(C)C)CC4)C[C@@H]3C)cc2)CCC(=O)NC1=O [Cmpd 8, hydrochloride]	100 to 10000 nM

Summary for this compound, C[C@@H]1CN(CCCO[C@H]2CC[C@H](N3C(=S)N(c4cnc(C#N)c(C(F)(F)F)c4)C(=O)C3(C)C)CC2)C[C@H](C)N1CC(=O)Nc1ccc(C2CCC(=O)NC2=O)cc1 (stereo partly drawn) [Cmpd 13, hydrochloride] : DC50 is ≤ 5 nM

DC50 reading for C[C@@H]1CN(CCCO[C@H]2CC[C@H](N3C(=S)N(c4ccc(C#N)c(C(F)(F)F)c4)C(=O)C3(C)C)CC2)C[C@H](C)N1CC(=O)Nc1ccc(C2CCC(=O)NC2=O)cc1 (stereo partly drawn) [Cmpd 12, hydrochloride] : ≤ 5 nM

Reported DC50 for CC1(C)C(=O)N(c2cnc(C#N)c(C(F)(F)F)c2)C(=S)N1[C@H]1CC[C@H](OCCCN2CCN(CC(=O)Nc3cccc(C4CCC(=O)NC4=O)c3)[C@@H](C(F)(F)F)C2)CC1 (stereo partly drawn) was ≤ 5 nM

Item: C[C@@H]1CN(CCCO[C@H]2CC[C@H](N3C(=S)N(c4ccc(C#N)c(C(F)(F)F)c4)C(=O)C3(C)C)CC2)C[C@H](C)N1CC(=O)Nc1cccc(C2CCC(=O)NC2=O)c1 (stereo partly drawn) [Cmpd 20, hydrochloride] | DC50: ≤ 5 nM

Consider C[C@@H]1CN(CCC[C@H]2CC[C@H](N3C(=S)N(c4cnc(C#N)c(C(F)(F)F)c4)C(=O)C3(C)C)CC2)C[C@H](C)N1CC(=O)Nc1ccc(C2CCC(=O)NC2=O)cc1 (stereo partly drawn) [Cmpd 15, hydrochloride] . Its measured DC50 is ≤ 5 nM

For reference, reported DC50 for C[C@@H]1CN(CCO[C@H]2CC[C@H](N3C(=S)N(c4ccc(C#N)c(Cl)c4)C(=O)C3(C)C)CC2)C[C@H](C)N1CC(=O)Nc1ccc(C2CCC(=O)NC2=O)cc1 (stereo partly drawn) [Cmpd 4, hydrochloride] stands at ≤ 5 nM

// DC50 lookup, compound = CC1(C)C(=O)N(c2cnc(C#N)c(C(F)(F)F)c2)C(=S)N1[C@H]1CC[C@H](OCCN2CCN(CC(=O)Nc3ccc(C4CCC(=O)NC4=O)cc3)[C@@H](C(F)(F)F)C2)CC1 (stereo partly drawn) , result: ≤ 5 nM

Form field DC50, entry C[C@@H]1C[C@H](OCCO[C@H]2CC[C@H](N3C(=S)N(c4cnc(C#N)c(C(F)(F)F)c4)C(=O)C3(C)C)CC2)C[C@H](C)N1CC(=O)Nc1ccc(C2CCC(=O)NC2=O)cc1 (stereo partly drawn) : ≤ 5 nM

The reported DC50 of the compound C[C@@H]1CN(CCO[C@H]2CC[C@H](N3C(=S)N(c4ccc(C#N)c(C(F)(F)F)c4)C(=O)C3(C)C)CC2)C[C@H](C)N1CC(=O)Nc1ccc(N2CCC(=O)NC2=O)cc1 [Cmpd 1, hydrochloride] was 100 to 10000 nM

###

molecular target: AR (Homo sapiens, UniProt P10275); construct: endogenous in cells; host or cells: VCaP cells; test: VCAP AR Degradation Assay; type: cell-based; settings: VCaP cells, 24 h; lowest AR level normalized to DMSO control; class symbols
Structures can show the parent of a compound that is named as a salt.

COMPOUND	STUDY_TARGET	Ymin
C[C@@H]1CN(CCO[C@H]2CC[C@H](N3C(=S)N(c4ccc(C#N)c(C(F)(F)F)c4)C(=O)C3(C)C)CC2)C[C@H](C)N1CC(=O)Nc1ccc(C2(C)CCC(=O)NC2=O)cc1 (single isomer, unassigned) [Cmpd 10, hydrochloride]	AR (Homo sapiens, UniProt P10275)	*** (30%<Y<80%)
C[C@@H]1CN(CCO[C@H]2CC[C@H](N3C(=S)N(c4cnc(C#N)c(C(F)(F)F)c4)C(=O)C3(C)C)CC2)C[C@H](C)N1CC(=O)Nc1ccc(C2CCC(=O)NC2=O)cc1 (stereo partly drawn) [Cmpd 6, hydrochloride]	AR (Homo sapiens, UniProt P10275)	*** (30%<Y<80%)
